Target: C-terminal-binding protein 1 (Homo sapiens)
Test: qHTS for Inhibitors of the Phosphatase Activity of Eya2: Carboxyl-terminal binding protein (CtBP) Counterscreen for Cherry-picked Compounds; further: nearly all actives have a fitted effect of over 65% in size
Details: purified protein-protein binding, AlphaScreen, 3 h; series mostly up to 46.1 µM
The campaign covered roughly 1,300 compounds. About 420 (32%) were called active. Not shown: some 32% with an inconclusive outcome. The call rests on the fitted dose curve; in most records, active means well fitted inhibition curve with a large enough effect; inconclusive means small, poorly fitted or top-dose-only effect; inactive means no such curve, though single readings can be large or run the other way. The list shows a part of the results.
The reply should name one outcome from TRUE for active, FALSE for inactive

Past entries and their recorded results:
Q: Status in this test for COc1ccc(-c2csc(Nc3ccc(S(N)(=O)=O)cc3)n2)cc1OC ?
Ans: TRUE

Q: Which result was noted for this molecule in the test: CN(C)Cc1ccccc1Sc1cccc2ccccc12
Ans: FALSE

Q: Check the results log: what was the call for Cc1coc2c(C)c3oc(=O)c(CCC(=O)N4CCC(C(=O)NCCCC(=O)O)(c5ccccc5)CC4)c(C)c3cc12 ?
Ans: TRUE

Q: Hey, what did the test say about COc1ccc(NC(=O)c2[nH]c(C)c(C(C)=O)c2C)cc1Cl ?
Ans: FALSE

Okay, next one:
Q: How was CCOc1cc(C(=O)NC(C)CCc2ccccc2)cc(OCC)c1OCC (stereo not given) classified in this test?
Ans: FALSE

----------
Molecular target: C-terminal-binding protein 1 (Homo sapiens)
Experiment: qHTS for Inhibitors of the Phosphatase Activity of Eya2: Carboxyl-terminal binding protein (CtBP) Counterscreen for Cherry-picked Compounds; further: nearly all actives have a fitted effect of over 65% in size; further: potency means the concentration at half of the fitted maximal effect
Conditions: purified protein-protein binding, AlphaScreen, 3 h; series mostly up to 46.1 µM
In all, about 1,300 compounds went through this assay and about 420 (32%) were called active. Roughly 32% stayed inconclusive and do not appear here. The list shows a part of the results.
readout_kind: Potency

Look over these answered cases.
Q: So what's the measured Potency for this one? COc1ccc(F)cc1-c1cc(NC=O)c2ncc(-c3cccc(C(F)(F)F)c3)n2c1
Ans: inactive

Q: Would you mind telling me what Potency value was observed for CCC(C)Nc1nc(-c2ccccn2)nc2ccccc12 (configuration not stated) ?
Ans: 9.53 µM (active)

Q: Field request: Potency | item: O=C(Oc1ccc(C(=S)N2CCCCC2)cc1)c1ccccc1F
Ans: inactive

Q: I have this compound here, O=c1cc2oc3cc(O)c(O)cc3c(-c3ccccc3[N+](=O)[O-])c-2cc1O , and I need its recorded Potency.
Ans: 9.53 µM (active)

Q: # Potency lookup, item COc1ccc(Nc2nnc(-c3ccc(C(N)=O)cc3)c3ccccc23)cc1
Ans: 4.78 µM (active)

Q: Could you tell me which Potency is on file for Cc1ccccc1NC(=O)C1CCN(C(=O)N2CCOc3ccccc32)CC1 ?
Ans: inactive

Q: # Potency lookup, item COc1ccc(-c2csc(-c3ccc(C(=O)O)cc3)n2)cc1
Ans: inactive

Q: Item COc1ccc(NC(=O)c2cc(-c3ccco3)nc3ccccc23)cn1 has what recorded Potency?
Ans: inactive

Q: Tell me the measured Potency of Cc1ccc(-c2nc3ccccc3s2)cc1NC(=S)NC(=O)/C=C/c1ccco1 , please.
Ans: inactive

Q: Entry under review: CNC(=O)c1cc2c(cn1)[nH]c1ccccc12 . Reported Potency?
Ans: inactive

Further cases:
Q: Look up Potency for this compound: O=C(CC1(O)C(=O)Nc2ccccc21)c1ccccc1 (configuration not stated)
Ans: inactive

Q: Data request, read-out Potency, for CC(NC(=O)c1cc2c(s1)CS(=O)(=O)C2)c1ccccc1 (configuration not stated)
Ans: inactive

Q: Give the measured Potency of Cc1cccc(NC2=C(NCCO)C(=O)c3ccccc3C2=O)c1 .
Ans: 12 µM (active)

Source: PubChem BioAssay AID720541
